TARGET: T1, human Nectin-4-eGFP on T24 cells (clone 3) (human, UniProt Q96NY8 32-510)
T1 sequence: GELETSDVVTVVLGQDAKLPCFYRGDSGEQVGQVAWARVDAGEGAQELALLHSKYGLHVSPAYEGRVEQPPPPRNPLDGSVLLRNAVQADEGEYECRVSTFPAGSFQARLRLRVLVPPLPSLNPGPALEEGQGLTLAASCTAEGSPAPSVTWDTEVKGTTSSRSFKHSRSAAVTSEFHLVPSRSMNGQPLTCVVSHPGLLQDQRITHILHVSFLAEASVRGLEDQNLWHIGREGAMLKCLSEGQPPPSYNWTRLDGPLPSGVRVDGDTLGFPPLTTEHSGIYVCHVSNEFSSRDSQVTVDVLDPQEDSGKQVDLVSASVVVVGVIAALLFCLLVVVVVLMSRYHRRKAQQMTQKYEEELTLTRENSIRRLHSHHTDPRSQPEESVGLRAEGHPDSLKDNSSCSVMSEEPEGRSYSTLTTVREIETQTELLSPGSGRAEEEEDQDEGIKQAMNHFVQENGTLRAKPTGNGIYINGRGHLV
TEST METHOD NOTES: cell-based or functional assay
I'd be grateful if you could share measured % activity (max GFP signal loss compared to enfortumab mAb (100%)) for these entries.
Write the answer as a number in %, unit excluded.

Task: Give the measured % activity (max GFP signal loss compared to enfortumab mAb (100%)) of Ab8 (antibody, human IgG1, lambda, L234A L235A, V domains shown, Unconjugated antibody; also called Antibody 8; nectin-4 antibody Ab8) VH: QVQLVQSGAEVKKPGASVKVSCKASGYTFTSYYIHWVRQAPGQGLEWMGIINPISGRTSSAQKFQGRVTMTRDTSTSTVYMELSSLRSEDTAVYYCAKEGVGGELLRAFDIWGQGTLVTVSS VL: QSVLTQPPSVSEAPRQRVTISCSGSSSNIGNNAVNWYQQLPGKAPKLLIYYDDLLPSGVSDRFSGSKSGTSASLAISGLQSEDEADYYCAAWDDSLNGFVFGGGTKLTVLG .
Result: 53.7

Task: So what does the record say about % activity (max GFP signal loss compared to enfortumab mAb (100%)) for Ab3 (antibody, human IgG1, kappa, L234A L235A, V domains shown, Unconjugated antibody; also called Antibody 3; nectin-4 antibody Ab3) VH: EVQLVESGGGLVKPGGSLRLSCAASGFNLNHYNMNWVRQAPGKGLEWVSSVSSGGGFRYYADSVRGRFTISRDNAKNSLYLQMNSLRAEDTAVYYCARGAVFHDAFDIWGQGTLVTVSS VL: DIQLTQSPSFLSASVGDRVTITCRASQDISSYLAWYQQKPGKAPKLLIYVASTLQSGVPSRFSGSGSGTEFTLTISSLQPEDFATYYCQQINSYPFTFGQGTKVEIKR ?
Result: 64.4

Task: Quick one: % activity (max GFP signal loss compared to enfortumab mAb (100%)) for Ab4 (antibody, human IgG1, kappa, L234A L235A, V domains shown, Unconjugated antibody; also called Antibody 4) VH: QVQLQESGPGLVKPSETLSLTCTVSGGSISGYYWSWIRQPPGKGLEWIGYIYYSGSTNYNPSLKSRVTISVDTSKNQFSLKLSSVTAADTAVYYCARLGIFFDAFDIWGQGTLVTVSS VL: DIQLTQSPSFLSASVGDRVTITCRASQGISSYLAWYQQKPGKAPKLLIYAASTLQSGVPSRFSGSGSGTEFTLTISSLQPEDFATYYCQQFNSYPWTFGQGTKVEIKR ?
Result: 40.9

Task: Given the binder Ab5 (antibody, human IgG1, kappa, L234A L235A, V domains shown, Unconjugated antibody; also called Antibody 5; nectin-4 antibody Ab5) VH: QVQLVQSGAEVKKPGASVKVSCKASGYTFTSYYVHWVRQAPGQGLEWMGIINPSIISTSYAQKFQARVTMTRDTSTSTVYMELSSLRSEDTAVYYCARGLNFDAFDIWGQGTLVTVSS VL: DIQLTQSPSFLSASVGDRVTITCRASQGISSYLAWYQQKPGKAPKLLIYAASTLQSGVPSRFSGSGSGTEFTLTISSLQPEDFATYYCQQLNNYPFTFGQGTKVEIKR , what is its reported % activity (max GFP signal loss compared to enfortumab mAb (100%))?
Result: 40.1

Task: What % activity (max GFP signal loss compared to enfortumab mAb (100%)) value was documented for this binder, Ab1a ADC (Ab1a conjugated as in Formula XI, DAR of 8) (antibody, human IgG1, kappa, L234A L235A, V domains shown, camptothecin analog linker-payload of Formula XI on cysteine thiols after full reduction, DAR of 8 per antibody; positions not given, Antibody-drug conjugate of Ab1a; also called Ab1a (ADC column)) VH: QVQLVQSGAQVKKPGASVKVSCKASGYTFTGYYIHWVRQAPGQGLEWMGWINPNSGGTNYAQKFQGRVTMTRDTSISTAYMELSRLRSDDTAVYFCAREDWDFDYWGQGTLVTVSS VL: EIVLTQSPGTLSLSPGERATLSCRTSQSVSSSYLAWYQQKPGQAPRLLIYGASNRATDIPDRFSGSGSGTDFTLTINRLEPEDFAVYYCQQYGSSPITFGQGTRLEIKR ?
Result: 150
